# measurement target: T1, human 4-1BB, full length, on transfected cells (human, UniProt Q07011 24-255)
# T1 construct: whole, on cells; also called CHOK1-h4-1BB
# T1 sequence (Q07011 24-255): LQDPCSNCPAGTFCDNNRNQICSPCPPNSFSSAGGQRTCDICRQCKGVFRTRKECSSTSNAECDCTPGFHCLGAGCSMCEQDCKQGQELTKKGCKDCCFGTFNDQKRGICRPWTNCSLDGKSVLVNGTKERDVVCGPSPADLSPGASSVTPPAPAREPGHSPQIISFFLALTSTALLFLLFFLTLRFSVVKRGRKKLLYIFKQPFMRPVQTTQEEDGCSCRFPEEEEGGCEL
# assay summary: FACS, CHOK1-h4-1BB cells; Ab 0.00013 ug/ml
Measured average fluorescence intensity by item
measure name: average fluorescence intensity (MFI)

* 100F3C4 (antibody, V domains shown) VH: QVQLQESGPGLVKPSGTLSLTCAVSGGSISSSNWWSWVRQPPGKGLEWIGEIYHSGSTNYNPSLKSRVTMSVDKSKNQFSLELRSVTAADTAVYYCARDAVDAYYYYYGMDVWGQGTTVTVSS VL: DIQLTQSPSFLSASVGDRVTITCRASQGISSYLAWYQQKPGKAPKLLIYAASTLQSGVPSRFSGSGSGTEFTLTISSLQPEDFATYYCQHLNSYPFTFGPGTKVDLK | 2
* 170D7F2 (antibody, V domains shown) VH: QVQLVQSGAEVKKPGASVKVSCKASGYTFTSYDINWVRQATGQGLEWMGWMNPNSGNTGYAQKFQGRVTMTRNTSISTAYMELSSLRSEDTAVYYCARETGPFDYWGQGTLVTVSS VL: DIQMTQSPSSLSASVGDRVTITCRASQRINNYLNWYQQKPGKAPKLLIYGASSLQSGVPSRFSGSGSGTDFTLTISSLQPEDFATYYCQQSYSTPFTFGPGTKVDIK | 2.6
* 119B6G5 (antibody, V domains shown) VH: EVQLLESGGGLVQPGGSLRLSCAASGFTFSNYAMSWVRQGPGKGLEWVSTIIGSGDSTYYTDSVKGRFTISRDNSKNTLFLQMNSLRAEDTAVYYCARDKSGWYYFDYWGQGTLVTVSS VL: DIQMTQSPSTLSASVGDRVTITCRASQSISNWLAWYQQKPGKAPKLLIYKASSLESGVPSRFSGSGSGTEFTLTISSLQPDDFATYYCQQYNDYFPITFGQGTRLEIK | 2.6
* 172E3E3 (antibody, V domains shown) VH: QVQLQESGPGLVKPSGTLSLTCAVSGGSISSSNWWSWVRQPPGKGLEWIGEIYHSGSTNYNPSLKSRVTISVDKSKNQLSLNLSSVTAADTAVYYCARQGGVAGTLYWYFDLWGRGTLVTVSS VL: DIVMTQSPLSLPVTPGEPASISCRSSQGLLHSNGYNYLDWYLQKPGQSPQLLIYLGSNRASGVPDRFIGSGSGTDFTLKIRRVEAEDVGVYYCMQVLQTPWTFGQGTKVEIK | 13.8
